# target or system: human growth hormone secretagogue receptor (hGHS-R1a) (Homo sapiens, UniProt Q92847)
# Sequence (Q92847 whole entry): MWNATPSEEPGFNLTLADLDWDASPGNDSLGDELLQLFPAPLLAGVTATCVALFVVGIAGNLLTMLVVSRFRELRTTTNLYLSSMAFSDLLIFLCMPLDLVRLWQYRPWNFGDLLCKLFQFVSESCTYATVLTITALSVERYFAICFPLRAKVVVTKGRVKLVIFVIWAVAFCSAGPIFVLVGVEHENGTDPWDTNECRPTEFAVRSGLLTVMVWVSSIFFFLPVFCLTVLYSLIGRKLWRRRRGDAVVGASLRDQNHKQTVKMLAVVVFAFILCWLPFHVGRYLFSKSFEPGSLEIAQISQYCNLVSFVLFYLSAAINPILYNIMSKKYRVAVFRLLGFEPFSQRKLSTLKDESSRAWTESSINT
# procedure summary: Competitive radioligand binding assay (ghrelin receptor), standard method A
# condition: binding activity at the human ghrelin receptor, standard method A
pKi: −log10 of the molar value.
assay metric: pKi

Look over these answered cases.
>>> result_value("C[C@@H]1CN[C@@H](C2CC2)C(=O)N(C)[C@H](C)C(=O)N[C@H](Cc2ccc(F)cc2)C(=O)NCCCc2ncccc2O1")
"≥ 7.00"
>>> result_value("C[C@@H]1CN[C@@H](C2CC2)C(=O)N(C)[C@H](C)C(=O)N[C@H](Cc2ccc(F)cc2)C(=O)NCCCc2ccc(F)cc2O1")
"≥ 7.00"

Would you kindly look at the next entry?
# query: pKi of entry "CCC[C@@H]1NC[C@H](C)Oc2ccccc2CCCNC(=O)[C@@H](Cc2ccccc2)NC(=O)[C@@H](C)N(C)C1=O"
≥ 6.30

====

CYP2C19 (Homo sapiens) data, read-out IC50
Sequence (P33261 whole entry): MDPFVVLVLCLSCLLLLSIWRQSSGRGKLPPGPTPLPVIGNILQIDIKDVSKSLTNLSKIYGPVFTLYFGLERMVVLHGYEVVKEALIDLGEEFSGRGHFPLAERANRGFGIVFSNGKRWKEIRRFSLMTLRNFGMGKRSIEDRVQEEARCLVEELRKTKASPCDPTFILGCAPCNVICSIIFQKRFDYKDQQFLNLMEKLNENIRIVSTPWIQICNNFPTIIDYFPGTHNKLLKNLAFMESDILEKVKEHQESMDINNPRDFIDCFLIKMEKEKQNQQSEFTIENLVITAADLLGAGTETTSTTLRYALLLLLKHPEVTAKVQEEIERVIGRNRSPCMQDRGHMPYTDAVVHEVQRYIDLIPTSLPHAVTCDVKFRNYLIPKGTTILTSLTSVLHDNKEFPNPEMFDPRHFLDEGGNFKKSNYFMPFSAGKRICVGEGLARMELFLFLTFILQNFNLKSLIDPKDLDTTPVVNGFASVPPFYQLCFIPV

>>> result_value("CC(C)C[C@H]1NC(=O)[C@@H](C)N(C)C(=O)[C@H](C2CC2)NC[C@@H](C)Oc2ccccc2CC[C@H](C)NC1=O")
"> 100 µM"
>>> result_value("CC1CNC(C2CC2)C(=O)N(C)C(C)C(=O)NC(Cc2ccc(O)cc2)C(=O)NCCCC2CCCCC2O1 (mixture of isomers)")
"> 100 µM"

Would you kindly look at the next entry?
# query: IC50 of entry "C[C@@H]1C(=O)N[C@H](Cc2ccc(O)cc2)C(=O)NCCCc2ccc(F)cc2OCCN[C@@H](C2CC2)C(=O)N1C"
> 100 µM

====

# Tested on: rat plasma
# procedure summary: Plasma protein binding, rat plasma
# Type: in vitro ADME
# condition: test concentration 3 μg/mL
Measured Rat Plasma Protein Binding (%) of individual entries
Provide only the numeric value, understood in %.

>>> result_value("CC1NC(C2CC2)C(=O)N(C)C(C)C(=O)NC(Cc2ccc(O)cc2)C(=O)NCCCc2ccccc2OC1C (centres unmarked) [Compound 820]")
98.8

Would you kindly look at the next entry?
Give recorded Rat Plasma Protein Binding (%) with rat plasma for the following compound: CC(C)C[C@H]1NC(=O)[C@@H](C)N(C)C(=O)[C@H](C2CC2)NCCOc2cc(F)ccc2CC[C@H](C)NC1=O [Compound 822]
99.1

====

# Test system: human plasma
# procedure summary: Plasma protein binding, human plasma (equilibrium dialysis)
# Type: in vitro ADME
# condition: test concentration 3 μg/mL
Measured Human Plasma Protein Binding (%) of individual entries
Provide the measurement as a number trailed by its unit.

Look over these answered cases.
>>> result_value("CC(C)C[C@H]1NC(=O)[C@@H](C)N(C)C(=O)[C@H](C2CC2)NCCOc2cc(F)ccc2CC[C@H](C)NC1=O")
"93.0%"
>>> result_value("CC1C(=O)NC(Cc2ccc(O)cc2)C(=O)NCCCC2CCCCC2OCCNC(C2CC2)C(=O)N1C (centres unmarked)")
"92.8%"
>>> result_value("CC1CNC(C2CC2)C(=O)N(C)C(C)C(=O)NC(Cc2ccc(O)c(F)c2)C(=O)NCCCC2CCCCC2O1 (mixture of isomers)")
"88.9%"

# query: Human Plasma Protein Binding (%) of entry "CC(C)C[C@H]1NC(=O)[C@@H](C)N(C)C(=O)[C@H](C2CC2)NCCOc2cc(F)ccc2CCCNC1=O"
78.9%

# query: Human Plasma Protein Binding (%) of entry "C[C@@H]1C(=O)N[C@H](Cc2ccc(O)cc2)C(=O)NCCCc2ccc(F)cc2OCCN[C@@H](C2CC2)C(=O)N1C"
88.4%

# query: Human Plasma Protein Binding (%) of entry CC(C)CC1NC(=O)C(C)N(C)C(=O)C(C2CC2)NC(C)C(C)Oc2ccccc2CCCNC1=O (centres unmarked)
95.2%

# query: Human Plasma Protein Binding (%) of entry CC1NC(C2CC2)C(=O)N(C)C(C)C(=O)NC(Cc2ccc(O)cc2)C(=O)NCCCc2ccccc2OC1C (centres unmarked)
99.0%

# query: Human Plasma Protein Binding (%) of entry CC(C)CC1NC(=O)C(C)N(C)C(=O)C(C2CCCCC2)NCC(C)OC2CCCCC2CCCNC1=O (mixture of isomers)
76.8%

Where do the numbers come from? From patent US10258602B2.
